All figures here come from paper PMC3961306.

- tested-target: panel of more than 300 wild-type and mutant kinases (313 kinase panel) (Homo sapiens)
- experiment-summary: Kinase profiling in a biochemical assay panel (mobility shift assays and ELISA), %-inhibition at 1 μM; selectivity entropy
- conditions-used: kinase YES; compound at 1 μM
Measured %-inhibition of YES by item

molecule | %-inhibition of YES [%]
CCCS(=O)(=O)Nc1ccc(F)c(C(=O)c2c[nH]c3ncc(-c4ccc(Cl)cc4)cc23)c1F | 74
CO[C@H]1C[C@@H]2CC[C@@H](C)[C@@](O)(O2)C(=O)C(=O)N2CCCC[C@H]2C(=O)O[C@H]([C@H](C)C[C@@H]2CC[C@@H](OC(=O)C(C)(CO)CO)[C@H](OC)C2)CC(=O)[C@H](C)/C=C(\C)[C@@H](O)[C@@H](OC)C(=O)[C@H](C)C[C@H](C)/C=C/C=C/C=C/1C | -7
C[C@@H](Oc1cc(-c2cnn(C3CCNCC3)c2)cnc1N)c1c(Cl)ccc(F)c1Cl | 65

###

Measured %-inhibition of DYRK1B by item
- tested-target: panel of more than 300 wild-type and mutant kinases (313 kinase panel) (Homo sapiens)
- experiment-summary: Kinase profiling in a biochemical assay panel (mobility shift assays and ELISA), %-inhibition at 1 μM; selectivity entropy
- conditions-used: kinase DYRK1B; compound at 1 μM
measurement-type: %-inhibition of DYRK1B (%)

compound | tested-target | display-unit | recorded-measurement
COc1cc2nccc(Oc3ccc(NC(=O)C4(C(=O)Nc5ccc(F)cc5)CC4)cc3)c2cc1OC [cabozantinib] | panel of more than 300 wild-type and mutant kinases (313 kinase panel) (Homo sapiens) | % | -5
CNC(=O)c1cc(Oc2ccc(NC(=O)Nc3ccc(Cl)c(C(F)(F)F)c3)c(F)c2)ccn1 [regorafenib] | panel of more than 300 wild-type and mutant kinases (313 kinase panel) (Homo sapiens) | % | -7.4
COc1cc2c(Nc3ccc(Br)cc3F)ncnc2cc1OCC1CCN(C)CC1 [vandetanib] | panel of more than 300 wild-type and mutant kinases (313 kinase panel) (Homo sapiens) | % | -2.71
CC(C)(C)c1nc(-c2cccc(NS(=O)(=O)c3c(F)cccc3F)c2F)c(-c2ccnc(N)n2)s1 [dabrafenib] | panel of more than 300 wild-type and mutant kinases (313 kinase panel) (Homo sapiens) | % | 29
N#CC[C@H](C1CCCC1)n1cc(-c2ncnc3[nH]ccc23)cn1 [ruxolitinib] | panel of more than 300 wild-type and mutant kinases (313 kinase panel) (Homo sapiens) | % | 8
Cc1ccc(C(=O)Nc2ccc(CN3CCN(C)CC3)c(C(F)(F)F)c2)cc1C#Cc1cnc2cccnn12 [ponatinib] | panel of more than 300 wild-type and mutant kinases (313 kinase panel) (Homo sapiens) | % | 2
CCCS(=O)(=O)Nc1ccc(F)c(C(=O)c2c[nH]c3ncc(-c4ccc(Cl)cc4)cc23)c1F [vemurafenib] | panel of more than 300 wild-type and mutant kinases (313 kinase panel) (Homo sapiens) | % | -1.74
CC(=O)Nc1cccc(-n2c(=O)n(C3CC3)c(=O)c3c(Nc4ccc(I)cc4F)n(C)c(=O)c(C)c32)c1 [trametinib] | panel of more than 300 wild-type and mutant kinases (313 kinase panel) (Homo sapiens) | % | 3.34
O=S(=O)(c1cccc2cnccc12)N1CCCNCC1 [fasudil] | panel of more than 300 wild-type and mutant kinases (313 kinase panel) (Homo sapiens) | % | 4.76
COc1cc(Nc2c(C#N)cnc3cc(OCCCN4CCN(C)CC4)c(OC)cc23)c(Cl)cc1Cl [bosutinib] | panel of more than 300 wild-type and mutant kinases (313 kinase panel) (Homo sapiens) | % | -5
CO[C@H]1C[C@@H]2CC[C@@H](C)[C@@](O)(O2)C(=O)C(=O)N2CCCC[C@H]2C(=O)O[C@H]([C@H](C)C[C@@H]2CC[C@@H](OC(=O)C(C)(CO)CO)[C@H](OC)C2)CC(=O)[C@H](C)/C=C(\C)[C@@H](O)[C@@H](OC)C(=O)[C@H](C)C[C@H](C)/C=C/C=C/C=C/1C [temsirolimus] | panel of more than 300 wild-type and mutant kinases (313 kinase panel) (Homo sapiens) | % | -11
C[C@@H](Oc1cc(-c2cnn(C3CCNCC3)c2)cnc1N)c1c(Cl)ccc(F)c1Cl [crizotinib] | panel of more than 300 wild-type and mutant kinases (313 kinase panel) (Homo sapiens) | % | -3
Cc1cn(-c2cc(NC(=O)c3ccc(C)c(Nc4nccc(-c5cccnc5)n4)c3)cc(C(F)(F)F)c2)cn1 [nilotinib] | panel of more than 300 wild-type and mutant kinases (313 kinase panel) (Homo sapiens) | % | -7.58
CO[C@H]1C[C@@H]2CC[C@@H](C)[C@@](O)(O2)C(=O)C(=O)N2CCCC[C@H]2C(=O)O[C@H]([C@H](C)C[C@@H]2CC[C@@H](OCCO)[C@H](OC)C2)CC(=O)[C@H](C)/C=C(\C)[C@@H](O)[C@@H](OC)C(=O)[C@H](C)C[C@H](C)/C=C/C=C/C=C/1C [everolimus] | panel of more than 300 wild-type and mutant kinases (313 kinase panel) (Homo sapiens) | % | -8
CS(=O)(=O)CCNCc1ccc(-c2ccc3ncnc(Nc4ccc(OCc5cccc(F)c5)c(Cl)c4)c3c2)o1 [lapatinib] | panel of more than 300 wild-type and mutant kinases (313 kinase panel) (Homo sapiens) | % | 3
Cc1ccc(Nc2nccc(N(C)c3ccc4c(C)n(C)nc4c3)n2)cc1S(N)(=O)=O [pazopanib] | panel of more than 300 wild-type and mutant kinases (313 kinase panel) (Homo sapiens) | % | -3

###

- tested-target: panel of more than 300 wild-type and mutant kinases (313 kinase panel) (Homo sapiens)
- experiment-summary: Kinase profiling in a biochemical assay panel (mobility shift assays and ELISA), %-inhibition at 1 μM; selectivity entropy
- conditions-used: kinase HCK; compound at 1 μM
Measured %-inhibition of HCK by item
measurement-type: %-inhibition of HCK (%)

molecule | tested-target | measurement-type | display-unit | recorded-measurement
Cc1ccc(C(=O)Nc2ccc(CN3CCN(C)CC3)c(C(F)(F)F)c2)cc1C#Cc1cnc2cccnn12 | panel of more than 300 wild-type and mutant kinases (313 kinase panel) (Homo sapiens) | %-inhibition of HCK | % | 98
CO[C@H]1C[C@@H]2CC[C@@H](C)[C@@](O)(O2)C(=O)C(=O)N2CCCC[C@H]2C(=O)O[C@H]([C@H](C)C[C@@H]2CC[C@@H](OC(=O)C(C)(CO)CO)[C@H](OC)C2)CC(=O)[C@H](C)/C=C(\C)[C@@H](O)[C@@H](OC)C(=O)[C@H](C)C[C@H](C)/C=C/C=C/C=C/1C | panel of more than 300 wild-type and mutant kinases (313 kinase panel) (Homo sapiens) | %-inhibition of HCK | % | 3.49
COc1cc(Nc2c(C#N)cnc3cc(OCCCN4CCN(C)CC4)c(OC)cc23)c(Cl)cc1Cl | panel of more than 300 wild-type and mutant kinases (313 kinase panel) (Homo sapiens) | %-inhibition of HCK | % | 89
CCCS(=O)(=O)Nc1ccc(F)c(C(=O)c2c[nH]c3ncc(-c4ccc(Cl)cc4)cc23)c1F | panel of more than 300 wild-type and mutant kinases (313 kinase panel) (Homo sapiens) | %-inhibition of HCK | % | 30
CO[C@H]1C[C@@H]2CC[C@@H](C)[C@@](O)(O2)C(=O)C(=O)N2CCCC[C@H]2C(=O)O[C@H]([C@H](C)C[C@@H]2CC[C@@H](OCCO)[C@H](OC)C2)CC(=O)[C@H](C)/C=C(\C)[C@@H](O)[C@@H](OC)C(=O)[C@H](C)C[C@H](C)/C=C/C=C/C=C/1C | panel of more than 300 wild-type and mutant kinases (313 kinase panel) (Homo sapiens) | %-inhibition of HCK | % | -2.7

###

- tested-target: panel of more than 300 wild-type and mutant kinases (313 kinase panel) (Homo sapiens, UniProt Q9H2X6)
- experiment-summary: Kinase profiling in a biochemical assay panel (mobility shift assays and ELISA), %-inhibition at 1 μM; selectivity entropy
- conditions-used: kinase HIPK2; compound at 1 μM

compound | %-inhibition of HIPK2 (%)
CCCS(=O)(=O)Nc1ccc(F)c(C(=O)c2c[nH]c3ncc(-c4ccc(Cl)cc4)cc23)c1F [vemurafenib] | -5
Cc1cn(-c2cc(NC(=O)c3ccc(C)c(Nc4nccc(-c5cccnc5)n4)c3)cc(C(F)(F)F)c2)cn1 [nilotinib] | 16
CO[C@H]1C[C@@H]2CC[C@@H](C)[C@@](O)(O2)C(=O)C(=O)N2CCCC[C@H]2C(=O)O[C@H]([C@H](C)C[C@@H]2CC[C@@H](OC(=O)C(C)(CO)CO)[C@H](OC)C2)CC(=O)[C@H](C)/C=C(\C)[C@@H](O)[C@@H](OC)C(=O)[C@H](C)C[C@H](C)/C=C/C=C/C=C/1C [temsirolimus] | 0.538
CC(C)(C)c1nc(-c2cccc(NS(=O)(=O)c3c(F)cccc3F)c2F)c(-c2ccnc(N)n2)s1 [dabrafenib] | 42
CNC(=O)c1cc(Oc2ccc(NC(=O)Nc3ccc(Cl)c(C(F)(F)F)c3)c(F)c2)ccn1 [regorafenib] | 78
C[C@@H](Oc1cc(-c2cnn(C3CCNCC3)c2)cnc1N)c1c(Cl)ccc(F)c1Cl [crizotinib] | -6.53
